TARGET_OR_TEST_SYSTEM: T1, HLA-B*0702 molecule on HLA-B*0702 transfected TAP deficient T2 cells (T2-B7) (human)
T1 construct: MHC class I molecule without a defined peptide, on the surface of T2-B7 cells; its surface level was read with the anti-HLA-B7 mAb ME.1 by flow cytometry; also called HLA-B7
EXPERIMENTAL_DETAILS: MHC stabilization assay on T2-B7 cells, flow cytometry with ME.1; ratio of concentration giving 20% of maximal binding against reference peptide R10TV
OBSERVED_PROPERTY: relative avidity (ratio)

// solved cases for relative avidity follow
BINDER	EXPERIMENTAL_RESULT
APRCRAVRSL (Synthetic peptide, minimum purity 80%) [hTERT peptide p4 (APRCRAVRSL, residues 4-13)]	0.3
MPRAPRCRA (Synthetic peptide, minimum purity 80%) [hTERT peptide p1 (MPRAPRCRA, residues 1-9)]	0.4

A. APSFRQVSCL (Synthetic peptide, minimum purity 80%) [hTERT peptide p68 (APSFRQVSCL, residues 68-77)]
B. RPSLTGARRL (Synthetic peptide, minimum purity 80%) [hTERT peptide p351 (RPSLTGARRL, residues 351-360)]
Lookup: For the two items A and B , which reports the higher relative avidity value? Answer format: the label of the selected item.
Found: B
